biological target: Adenosine receptor A3 (Homo sapiens) (UniProt P0DMS8); assay: Displacement of [3H]NECA from human recombinant adenosine A3 receptor expressed in human HeLa cells at 1 uM after 180 mins by scintillation counting; assay type: cell-based
Sequence (P0DMS8 whole entry): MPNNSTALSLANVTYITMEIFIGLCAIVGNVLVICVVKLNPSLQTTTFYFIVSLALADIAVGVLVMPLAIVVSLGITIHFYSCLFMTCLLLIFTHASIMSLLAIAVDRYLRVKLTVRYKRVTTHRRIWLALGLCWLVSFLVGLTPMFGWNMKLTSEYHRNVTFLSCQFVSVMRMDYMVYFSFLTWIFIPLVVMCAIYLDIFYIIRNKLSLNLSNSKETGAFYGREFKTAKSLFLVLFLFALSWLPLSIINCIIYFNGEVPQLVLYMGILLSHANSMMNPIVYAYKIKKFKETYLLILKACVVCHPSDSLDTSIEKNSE
Please respond with reported inhibition for every item in the list.
Number in %, nothing else.

Exercise: Returns the measured inhibition for the input compound. Input: CCCn1c(=O)c2c(cc(-c3ccc(OCC(=O)N4CCN(c5ccccc5)CC4)cc3)n2C)n(CCC)c1=O
Key: 2

Exercise: Returns the measured inhibition for the input compound. Input: COc1cc(OCc2nc(-c3ccc(Br)cc3)no2)ccc1-c1cc2c([nH]1)c(=O)n(C)c(=O)n2C
Key: 3

Exercise: Returns the measured inhibition for the input compound. Input: CCCn1c(=O)[nH]c(=O)c2[nH]c(-c3ccc(OCC(=O)Nc4ccc(Br)cc4)cc3)cc21
Key: 28

Exercise: Returns the measured inhibition for the input compound. Input: CCCn1c(=O)[nH]c(=O)c2[nH]c(-c3ccc(OCC(=O)N4CCN(c5ccccc5)CC4)cc3)cc21
Key: 15

----------
target: Adenosine receptor A2a (Homo sapiens); assay: Displacement of [3H]ZM241385 from human recombinant adenosine A2A receptor expressed in human HeLa cells at 1 uM after 30 mins; type: cell-based
Sequence (P29274 whole entry): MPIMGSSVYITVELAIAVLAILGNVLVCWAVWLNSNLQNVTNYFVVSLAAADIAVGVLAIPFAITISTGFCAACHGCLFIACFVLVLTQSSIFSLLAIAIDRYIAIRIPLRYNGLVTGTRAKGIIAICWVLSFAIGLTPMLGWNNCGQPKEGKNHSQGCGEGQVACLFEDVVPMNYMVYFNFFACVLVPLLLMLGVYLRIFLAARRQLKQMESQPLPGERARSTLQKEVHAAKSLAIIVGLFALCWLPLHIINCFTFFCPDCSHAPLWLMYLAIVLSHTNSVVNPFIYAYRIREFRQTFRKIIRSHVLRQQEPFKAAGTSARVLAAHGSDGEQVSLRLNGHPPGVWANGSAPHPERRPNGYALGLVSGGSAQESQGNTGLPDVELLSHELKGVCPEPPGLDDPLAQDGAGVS
inhibition below 30% gives f; inhibition at or above it gives t.

Exercise: Identify whether the reported inhibition of the following compound is 30% or greater: CCCn1c(=O)[nH]c2cc(-c3ccc(OCC(=O)Nc4ccc(Br)cc4)cc3)[nH]c2c1=O
Key: t

Exercise: Identify whether the reported inhibition of the following compound is 30% or greater: CCCn1c(=O)c2c(cc(-c3ccc(OCC(=O)N4CCN(c5ccccc5)CC4)cc3)n2C)n(CCC)c1=O
Key: f

Exercise: Identify whether the reported inhibition of the following compound is 30% or greater: CCCn1c(=O)c2c(cc(-c3ccc(OCC(=O)Nc4ccc(F)cc4)cc3)n2C)n(CCC)c1=O
Key: f

Exercise: Identify whether the reported inhibition of the following compound is 30% or greater: CCCn1c(=O)[nH]c2cc(-c3ccc(OCc4nc(-c5ccc(Br)cc5)no4)cc3)[nH]c2c1=O
Key: f

Exercise: Identify whether the reported inhibition of the following compound is 30% or greater: CCCn1c(=O)c2c(cc(-c3ccc(OCC(=O)N4CCc5ccccc5C4)cc3)n2C)n(CCC)c1=O
Key: f

Exercise: Identify whether the reported inhibition of the following compound is 30% or greater: CCCn1c(=O)[nH]c(=O)c2[nH]c(-c3ccc(OCC(=O)Nc4ccc(F)cc4)cc3)cc21
Key: t

Exercise: Identify whether the reported inhibition of the following compound is 30% or greater: CCCn1c(=O)c2c(cc(-c3ccc(OCC(=O)Nc4ccc(F)cc4)cc3)n2C)n(C)c1=O
Key: f

Exercise: Identify whether the reported inhibition of the following compound is 30% or greater: CCCn1c(=O)[nH]c(=O)c2[nH]c(-c3ccc(OCC(=O)Nc4ccc(Br)cc4)cc3)cc21
Key: f

----------
biological target: UniProt:P0DMS8; assay: Displacement of [3H]NECA from human recombinant adenosine A3 receptor expressed in human HeLa cells at 1 uM after 180 mins by scintillation counting; type: cell-based
inhibition below 2% gives 0.0; inhibition at or above it gives 1.0.

Exercise: Identify whether the reported inhibition of the following compound is 2% or greater: CCCn1c(=O)c2c(cc(-c3ccc(OCC(=O)N4CCc5ccccc5C4)cc3)n2C)n(CCC)c1=O
Key: 1.0

Exercise: Identify whether the reported inhibition of the following compound is 2% or greater: CCCn1c(=O)c2c(cc(-c3ccc(OCC(=O)Nc4ccc(F)cc4)cc3)n2C)n(CCC)c1=O
Key: 0.0

Exercise: Identify whether the reported inhibition of the following compound is 2% or greater: CCCn1c(=O)[nH]c2cc(-c3ccc(OCC(=O)Nc4ccc(Br)cc4)cc3)[nH]c2c1=O
Key: 1.0

Exercise: Identify whether the reported inhibition of the following compound is 2% or greater: CCCn1c(=O)[nH]c(=O)c2[nH]c(-c3ccc(OCC(=O)N4CCc5ccccc5C4)cc3)cc21
Key: 0.0

Exercise: Identify whether the reported inhibition of the following compound is 2% or greater: CCCn1c(=O)c2c(cc(-c3ccc(OCC(=O)Nc4ccc(F)cc4)cc3)n2C)n(C)c1=O
Key: 1.0

Exercise: Identify whether the reported inhibition of the following compound is 2% or greater: CCCn1c(=O)[nH]c(=O)c2[nH]c(-c3ccc(OCC(=O)Nc4ccc(F)cc4)cc3)cc21
Key: 1.0

Exercise: Identify whether the reported inhibition of the following compound is 2% or greater: CCCn1c(=O)[nH]c(=O)c2[nH]c(-c3ccc(OCC(=O)Nc4ccccc4)cc3)cc21
Key: 0.0

----------
biological target: Adenosine receptor A1 (Homo sapiens, UniProt P30542); experiment: Displacement of [3H]DPCPX from human recombinant adenosine A1 receptor expressed in CHO-A1 cells after 60 mins
Sequence (P30542 whole entry): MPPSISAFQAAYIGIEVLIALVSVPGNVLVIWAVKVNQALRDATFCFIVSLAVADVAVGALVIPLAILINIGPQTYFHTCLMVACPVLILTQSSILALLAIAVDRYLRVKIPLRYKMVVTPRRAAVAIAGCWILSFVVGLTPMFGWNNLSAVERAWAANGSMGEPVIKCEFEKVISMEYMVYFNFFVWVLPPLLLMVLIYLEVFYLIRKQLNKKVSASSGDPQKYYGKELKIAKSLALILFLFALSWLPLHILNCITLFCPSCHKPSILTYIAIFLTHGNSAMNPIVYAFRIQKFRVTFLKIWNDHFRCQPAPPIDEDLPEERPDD
VALUE_KIND: pKi
Scale explanation: pKi corresponds to minus log10 of a concentration expressed in moles per litre.

Exercise: Returns the measured pKi for the input compound. Input: COc1cc(OCc2nc(-c3ccc(Br)cc3)no2)ccc1-c1cc2c([nH]1)c(=O)n(C)c(=O)n2C
Key: 6.74

Exercise: Returns the measured pKi for the input compound. Input: CCCn1c(=O)[nH]c2cc(-c3ccc(OCC(=O)Nc4ccc(F)cc4)cc3)[nH]c2c1=O
Key: 7.12

Exercise: Returns the measured pKi for the input compound. Input: CCCn1c(=O)[nH]c2cc(-c3ccc(OCC(=O)Nc4ccc(Br)cc4)cc3)[nH]c2c1=O
Key: 8.76

----------
target: Adenosine receptor A2a (Homo sapiens); assay: Displacement of [3H]ZM241385 from human recombinant adenosine A2A receptor expressed in human HeLa cells after 30 mins
VALUE_KIND: Ki (µM)
Number in µM, nothing else.

Exercise: Returns the measured Ki for the input compound. Input: CCCn1c(=O)[nH]c2cc(-c3ccc(OCC(=O)Nc4ccc(F)cc4)cc3)[nH]c2c1=O
Key: 6.46

Exercise: Returns the measured Ki for the input compound. Input: COc1cc(OCc2nc(-c3ccc(Br)cc3)no2)ccc1-c1cc2c([nH]1)c(=O)n(C)c(=O)n2C
Key: 0.708

----------
Please respond with reported inhibition for every item in the list.
biological target: Adenosine receptor A2a (Homo sapiens); assay: Displacement of [3H]ZM241385 from human recombinant adenosine A2A receptor expressed in human HeLa cells at 1 uM after 30 mins; format: cell-based
Reply with the number, then its unit.

Exercise: Returns the measured inhibition for the input compound. Input: CCCn1c(=O)[nH]c(=O)c2[nH]c(-c3ccc(OCC(=O)Nc4ccccc4)cc3)cc21
Key: 17%

Exercise: Returns the measured inhibition for the input compound. Input: CCCn1c(=O)[nH]c(=O)c2[nH]c(-c3ccc(OCC(=O)N4CCc5ccccc5C4)cc3)cc21
Key: 12%

Exercise: Returns the measured inhibition for the input compound. Input: CCCn1c(=O)[nH]c(=O)c2[nH]c(-c3ccc(OCC(=O)N4CCN(c5ccccc5)CC4)cc3)cc21
Key: 33%

----------
Molecular target: UniProt P29275
Sequence (P29275 whole entry): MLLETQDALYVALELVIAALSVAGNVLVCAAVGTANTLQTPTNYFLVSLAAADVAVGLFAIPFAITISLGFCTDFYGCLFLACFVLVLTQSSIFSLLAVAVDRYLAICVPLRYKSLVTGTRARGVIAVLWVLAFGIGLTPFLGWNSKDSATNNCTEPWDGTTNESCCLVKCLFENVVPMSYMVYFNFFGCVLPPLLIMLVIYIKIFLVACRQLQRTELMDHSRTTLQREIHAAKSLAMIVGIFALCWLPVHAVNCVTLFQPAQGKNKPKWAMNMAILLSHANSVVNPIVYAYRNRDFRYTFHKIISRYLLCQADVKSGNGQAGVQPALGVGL
Assay: Displacement of [3H]DPCPX from human recombinant adenosine A2B receptor expressed in HEK293 cells after 30 mins
pKi: −log10 of the molar value.
pKi below 8 gives condition not met; pKi at or above it gives condition met.

Exercise: Identify whether the reported pKi of the following compound is 8 or greater: CCCn1c(=O)[nH]c2cc(-c3ccc(OCC(=O)Nc4ccc(Br)cc4)cc3)[nH]c2c1=O
Key: condition met

Exercise: Identify whether the reported pKi of the following compound is 8 or greater: CCCn1c(=O)c2c(cc(-c3ccc(OCC(=O)Nc4ccc(F)cc4)cc3)n2C)n(C)c1=O
Key: condition not met

Exercise: Identify whether the reported pKi of the following compound is 8 or greater: CCCn1c(=O)[nH]c(=O)c2[nH]c(-c3ccc(OCC(=O)N4CCc5ccccc5C4)cc3)cc21
Key: condition not met

Exercise: Identify whether the reported pKi of the following compound is 8 or greater: CCCn1c(=O)c2c(cc(-c3ccc(OCC(=O)N4CCc5ccccc5C4)cc3)n2C)n(CCC)c1=O
Key: condition not met

Exercise: Identify whether the reported pKi of the following compound is 8 or greater: CCCn1c(=O)[nH]c(=O)c2[nH]c(-c3ccc(OCC(=O)Nc4ccccc4)cc3)cc21
Key: condition not met

Exercise: Identify whether the reported pKi of the following compound is 8 or greater: CCCn1c(=O)[nH]c2cc(-c3ccc(OCC(=O)Nc4ccc(F)cc4)cc3)[nH]c2c1=O
Key: condition met

Exercise: Identify whether the reported pKi of the following compound is 8 or greater: CCCn1c(=O)[nH]c(=O)c2[nH]c(-c3ccc(OCC(=O)Nc4ccc(F)cc4)cc3)cc21
Key: condition not met

Exercise: Identify whether the reported pKi of the following compound is 8 or greater: CCCn1c(=O)[nH]c(=O)c2[nH]c(-c3ccc(OCC(=O)Nc4ccc(Br)cc4)cc3)cc21
Key: condition not met

Exercise: Identify whether the reported pKi of the following compound is 8 or greater: COc1cc(OCc2nc(-c3ccc(Br)cc3)no2)ccc1-c1cc2c([nH]1)c(=O)n(C)c(=O)n2C
Key: condition not met

Exercise: Identify whether the reported pKi of the following compound is 8 or greater: CCCn1c(=O)[nH]c2cc(-c3ccc(OCc4nc(-c5ccc(Br)cc5)no4)cc3)[nH]c2c1=O
Key: condition not met

Exercise: Identify whether the reported pKi of the following compound is 8 or greater: CCCn1c(=O)[nH]c(=O)c2[nH]c(-c3ccc(OCC(=O)N4CCN(c5ccccc5)CC4)cc3)cc21
Key: condition not met
